The reported numbers originate from patent EP4610269A1.

Target: human uPAR (uPAR-Fc) (Homo sapiens)
Construct: comprising amino acids Leu23-Arg303 according to UniProt entry Q03405.1; purchased R&D Systems 10378-UK-100
Sequence (Q03405 23-303): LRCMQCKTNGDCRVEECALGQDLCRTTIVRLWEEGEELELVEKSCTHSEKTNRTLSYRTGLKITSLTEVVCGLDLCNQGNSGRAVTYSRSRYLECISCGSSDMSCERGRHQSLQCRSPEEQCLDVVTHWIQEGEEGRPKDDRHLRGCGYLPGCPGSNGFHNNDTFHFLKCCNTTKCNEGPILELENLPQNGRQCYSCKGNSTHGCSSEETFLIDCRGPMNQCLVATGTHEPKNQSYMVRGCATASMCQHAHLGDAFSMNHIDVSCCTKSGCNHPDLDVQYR
Experiment: Surface plasmon resonance (SPR) assay, single cycle kinetics
Assay type: binding
Details: pKD category for uPAR SPR activity assay; uPAR-Fc on Protein A-Chip, single cycle kinetics, 25°C; read-out: pKD CAT (converted)
Where a SMILES comes first, the peptide text is derived from it. Bridges are numbered along the chain shown (N, C = ends). [ ]: non-standard residue; d: D form. The star is where a group is joined. DOTA = O=C(O)CN1CCN(CC(=O)O)CCN(CC(=O)*)CCN(CC(=O)O)CC1; Pro(cis-4-F) = O=C(O)[C@@H]1C[C@H](F)CN1; Ala(cPr) = N[C@@H](CC1CC1)C(=O)O; Hyp = O=C(O)[C@@H]1C[C@@H](O)CN1; Cit = NC(=O)NCCC[C@H](N)C(=O)O; Nva = CCC[C@H](N)C(=O)O; Hexanoyl = CCCCCC(=O)*; Pentanoyl = CCCCC(=O)*
Reported Kd by item:

compound	Kd
CCCCC(=O)N[C@H]1CSSC[C@@H](C(N)=O)NC(=O)[C@H](CC2CC2)NC(=O)[C@H]([C@@H](C)CC)NC(=O)[C@@H]2C[C@@H](O)CN2C(=O)[C@@H]2CCCN2C(=O)[C@H](Cc2ccccc2)NC(=O)[C@H](Cc2ccc(O)cc2)NC(=O)[C@H](CCC(N)=O)NC(=O)[C@H](CCCNC(=N)N)NC1=O [UPAR-379] (Pentanoyl-CRQYFP[Hyp]I[Ala(cPr)]C-NH2; disulfide 1-10)	< 1.58 nM
CCCCC(=O)N[C@H]1CSSC[C@@H](C(N)=O)NC(=O)[C@H](CCC)NC(=O)[C@H]([C@@H](C)CC)NC(=O)[C@@H]2C[C@@H](O)CN2C(=O)[C@@H]2C[C@H](F)CN2C(=O)[C@H](Cc2ccccc2)NC(=O)[C@H](Cc2ccc(O)cc2)NC(=O)[C@H](CCCCNC(=O)CN2CCN(CC(=O)O)CCN(CC(=O)O)CCN(CC(=O)O)CC2)NC(=O)[C@H](CCCNC(N)=O)NC1=O [UPAR-365] (Pentanoyl-C[Cit]K(DOTA)YF[Pro(cis-4-F)][Hyp]I[Nva]C-NH2; disulfide 1-10)	< 1.58 nM

Value of measured Kd for the entry CCCCCC(=O)N[C@@H](CC(=O)O)C(=O)N[C@@H](CC(C)C)C(=O)N[C@H]1CSSC[C@@H](C(N)=O)NC(=O)[C@H](CC(C)C)NC(=O)[C@H]([C@@H](C)CC)NC(=O)[C@H](CCCCNC(=O)CN2CCN(CC(=O)O)CCN(CC(=O)O)CCN(CC(=O)O)CC2)NC(=O)[C@@H]2CCCN2C(=O)[C@H](Cc2ccccc2)NC(=O)[C@H](Cc2ccc(O)cc2)NC(=O)[C@H](CCSC)NC(=O)[C@H](CCCNC(=N)N)NC1=O [UPAR-351] (Hexanoyl-DLCRMYFPK(DOTA)ILC-NH2; disulfide 3-12) : < 1.58 nM

---

Biological target: Recombinant soluble human NEP (Homo sapiens)
Construct: Recombinant soluble human NEP; purchased BioTechne, Wiesbaden, Germany
Sequence (P08473 52-750 limits assumed): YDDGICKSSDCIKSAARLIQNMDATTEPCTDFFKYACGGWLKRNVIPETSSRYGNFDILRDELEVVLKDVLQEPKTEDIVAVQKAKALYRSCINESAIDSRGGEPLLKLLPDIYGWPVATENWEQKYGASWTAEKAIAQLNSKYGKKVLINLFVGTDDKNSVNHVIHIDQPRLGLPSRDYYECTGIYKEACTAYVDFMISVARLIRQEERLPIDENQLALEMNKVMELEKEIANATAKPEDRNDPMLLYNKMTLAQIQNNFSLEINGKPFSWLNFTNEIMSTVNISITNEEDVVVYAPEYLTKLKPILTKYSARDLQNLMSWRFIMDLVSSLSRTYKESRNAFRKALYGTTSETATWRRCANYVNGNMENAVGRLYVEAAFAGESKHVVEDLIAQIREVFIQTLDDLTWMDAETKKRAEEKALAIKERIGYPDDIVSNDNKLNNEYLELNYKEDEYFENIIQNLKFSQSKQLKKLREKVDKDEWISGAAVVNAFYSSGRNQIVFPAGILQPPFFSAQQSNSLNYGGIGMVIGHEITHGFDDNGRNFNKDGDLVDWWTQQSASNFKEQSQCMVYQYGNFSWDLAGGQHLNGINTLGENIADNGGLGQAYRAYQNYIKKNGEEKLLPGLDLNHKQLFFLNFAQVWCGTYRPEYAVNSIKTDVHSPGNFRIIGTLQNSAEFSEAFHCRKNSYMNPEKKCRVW
Assay: Proteolytic stability assay against NEP
Type: in vitro ADME
Settings: recombinant soluble human NEP, human NEP 100 ng/mL, compound 10 µM, 37°C, LC-MS quantification, read-out: % intact compound remaining after 24h incubation
Where a SMILES comes first, the peptide text is derived from it. Bridges are numbered along the chain shown (N, C = ends). [ ]: non-standard residue; d: D form. The star is where a group is joined. Pentanoyl(4-Me) = CC(C)CCC(=O)*; Cit = NC(=O)NCCC[C@H](N)C(=O)O
endpoint-label: remaining at 24 h, 10 µM (%)
Provide only the numeric value, understood in %.

For reference, reported remaining at 24 h, 10 µM for CC[C@H](C)[C@@H]1NC(=O)[C@@H](C)NC(=O)[C@@H]2CCCN2C(=O)[C@H](Cc2ccccc2)NC(=O)[C@H](Cc2ccc(O)cc2)NC(=O)[C@H](CCC(N)=O)NC(=O)[C@H](CCCNC(N)=O)NC(=O)[C@@H](NC(=O)CCC(C)C)CSSC[C@@H](C(N)=O)NC(=O)[C@H](CC(C)C)NC1=O [UPAR-338] ({Pentanoyl(4-Me)}-C[Cit]QYFP[dA]ILC-NH2; disulfide 1-10) stands at 70
